- Test system: Inhibin beta A chain (activin A)
- Assay Method Text: small molecules binding activin A – biochemical, small-molecule microarray, 635 nm fluorescence scan, primary screen (AID 1107);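 also: mouse activin A protein probed at 4.33 µg/mL on printed slides; score merges bound-protein fluorescence near 667 nm with spot signal-to-noise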
- Condition Parameters: INHBA, higher = more signal
composite z-score below 0.2 gives Condition not met; composite z-score at or above it gives Condition met.

q: Reported composite z-score reaches at least 0.2 for [N-]=[N+]=Nc1ccccc1C[C@]1(C(=O)N2CCCCC2)COC(c2ccc(OCCCO)cc2)=N1 ?
a: Condition met

q: Identify whether the reported composite z-score of the following compound is 0.2 or greater: C=CCNC(=O)[C@H]1[C@@H]2C(=O)O[C@@H](c3ccccc3)[C@@H](c3ccccc3)N2[C@@H](c2ccc(OCCO)cc2)[C@]12C(=O)Nc1ccc(C#CCC(C(=O)OC)C(=O)OC)cc12
a: Condition met

q: State whether the measured composite z-score reaches 0.2, counting equality as reaching it, for COC(=O)[C@@]1(Cc2ccccc2)[C@H]2c3cc(C(=O)N(C)C)n(Cc4ccc(OC)c(OC)c4)c3C[C@H]2CN1C(=O)c1ccccc1
a: Condition met

q: Textbook exercise: given the entry COc1ccc(C#Cc2ccc3c(c2)[C@]2(C(=O)N3)[C@H](c3ccc(O)cc3)N3[C@H](c4ccccc4)[C@H](c4ccccc4)OC(=O)[C@H]3[C@@H]2C(=O)N2CCc3cc(OC)c(OC)cc3C2)cc1 , state whether its composite z-score is greater than or equal to 0.2.
a: Condition not met

q: In plain terms: is recorded composite z-score at least 0.2 for CCOc1ccc(N2C(=O)CSC2c2cccc([N+](=O)[O-])c2)cc1 (centres undefined) ?
a: Condition not met

q: Quick check, composite z-score >= 0.2? NC(=O)[C@@H]1[C@H]2C(=O)O[C@H](c3ccccc3)[C@H](c3ccccc3)N2[C@H](c2ccc(OCCO)cc2)[C@@]12C(=O)Nc1ccc(C#CC3=CCCCC3)cc12
a: Condition met

q: Hi team, for C=C(CCCC)/C(=C/C[C@H](OC(=O)c1ccncc1)c1ccc(OCCO)cc1)c1cc(C(=O)OC)ccc1OC , is the recorded composite z-score at or above 0.2?
a: Condition met

q: composite z-score >= 0.2 for CN1CCC(CCCO)=CC1c1cccs1 (centres undefined) ?
a: Condition met

q: Entry O=C1OCCC/C=C\[C@H]2OC34C=CCN(c5ccc6ccccc6c5)C(=O)[C@H]3N(CCCCCO)C(=O)[C@@H]4C12 (some centres undefined) : is its composite z-score no less than 0.2?
a: Condition met

q: Check the entry CO[C@H]1O[C@H](CO)[C@@H](OC(=O)Nc2ccccc2)[C@@H]2OC(=O)[C@@H](Cc3ccc4ccccc4c3)C/C=C/C[C@H](Cc3ccc4ccccc4c3)C(=O)O[C@@H]12 : does composite z-score equal or exceed 0.2?
a: Condition met

q: composite z-score >= 0.2 for O=C(CS)NCCCCCNC(=O)[C@H]1C[C@H]2C(=O)NCC(=O)N2[C@H]1c1cccc(OCCO)c1 ?
a: Condition not met

q: I'd appreciate it if you could say whether CCOC(=O)C[C@H]1[C@H](OC(=O)c2cc3ccccc3oc2=O)[C@@H](NC(=O)CC(C)C)c2cc(OCCCO)ccc2N1C(=O)c1ccccc1 has composite z-score at least equal to 0.2.
a: Condition not met

q: Item CN1C(=O)C2C=CC(C(O)c3c(F)cccc3Cl)N(NC(=O)OC(C)(C)C)C2C1=O (centres undefined) with composite z-score of 0.2 or above?
a: Condition met

// provenance: PubChem BioAssay
